System: SF-268 CNS
assayOverview: NCI tumour cell line growth inhibition, 48 h
Examples of molecules with documented GI50 follow.

Field: example entries. Status: answers known.
NC(N)=NC(N)=NCc1ccco1 | > 1250 µM
Cn1c(=O)c2[nH]cnc2n(C)c1=O.[CH2-]C(Cc1cccc2cc(C(=O)O)c(=O)oc12)OC.[Hg+2].[OH-] (stereo not given) | 16.9 µM
COc1ccc(OC)c(/C=C/C(=O)c2ccc3cc(OC)ccc3c2)c1 | > 14.3 µM
COc1ccc(CNC(=O)c2c(C)n([O-])c3cc(F)c(F)cc3[n+]2=O)cc1 | 4.4 µM
CC1(C)N=C(N)N=C(N)N1c1ccc(CCC(=O)Nc2cccc(S(=O)(=O)F)c2)cc1 | 4.74 µM
Nc1nc(Cl)c2ncn(Cc3ccc(-c4ccc(CCl)cc4)cc3)c2n1 | 16.2 µM
CC1SC(c2cccc(Cl)c2)N(NC(=O)C(O)c2ccccc2)C1=O (stereo not given) | > 100 µM
C=C1C(OCCO)OC2O[C@]3(C)CCC4[C@H](C)CCC1C24OO3 (stereo not given in full) | 43.4 µM

[ask] Which value of GI50 has been reported for "C[C@H](c1ccc(Cl)cc1[N+](=O)[O-])N1C(=O)c2cc(I)ccc2NC(=O)[C@H]1c1ccc(Cl)cc1" in the records?
[reply] > 100 µM

[ask] Quick one: CNCC1CCn2c(c(C3=C(c4cn(C)c5ccccc45)C(=O)NC3=O)c3ccccc32)C1 (stereo not given)
[reply] 4.17 µM

###

Test system: NCI/ADR-RES ovarian
assayOverview: NCI tumour cell line growth inhibition, 48 h
measurementLabel: GI50

Sample answers from the record:
CC1(C)N=C(N)N=C(N)N1c1ccc(CCC(=O)Nc2cccc(S(=O)(=O)F)c2)cc1 | > 100 µM
C[C@H](CCCOS(C)(=O)=O)[C@H]1CC[C@H]2[C@@H]3CC[C@@H]4C[C@H](OS(C)(=O)=O)CC[C@]4(C)[C@H]3CC[C@]12C | 10.5 µM
COC(=O)C1=C(O)C(C(=O)OC)[C@@]2(O)[C@@H](C(=O)OC)C(c3ccccc3Cl)C[C@@H]1[C@@H]2C(=O)OC (some centres undefined) | 3.16 µM

Next:
[ask] API: value(readout=GI50, system=NCI/ADR-RES ovarian) for record CCN1C(=O)N(CC)C2C1NN=c1s/c(=C\c3cnc(C)n3C)c(=O)n12 (centres undefined)
[reply] 10.3 µM

###

Tested on: SK-MEL-28 melanoma
assayOverview: NCI tumour cell line growth inhibition, 48 h
measurementLabel: TGI

Check out these entries, answers already filled in.
O=C(OCc1ccccc1)c1ccccc1-c1c2ccc(=O)cc-2oc2cc(OCc3ccccc3)ccc12 | 61 µM
CC(=O)Nc1ccc(OCC(O)CO)cc1 (stereo unspecified) | > 100 µM

[ask] Reported TGI, compound "CCCCn1c2c(n(CCCC)c1=[Se])-c1c(n(CCCC)c(=[Se])n1CCCC)S[Se][Se]S2" : ____
[reply] > 100 µM

[ask] // repeat for "Nc1c(O)c(C(=O)O)cc2ccccc12" and report
[reply] > 100 µM

[ask] Also, "CCOC(=O)c1c(CN2CCOCC2)n(Cc2ccccc2)c2c1cc(O)c1nc(C)c(C)nc12" please.
[reply] > 100 µM

[ask] Same lookup for N#CC1C(=O)NC(=O)C(C#N)C1c1ccc(Cl)c(Cl)c1 (stereo unspecified) , please.
[reply] > 100 µM
